Test: Oral bioavailability in rat
Assay type: ADME, organism-based
Settings: in vivo
Property Label: bioavailability
Could you give the number and then its unit, please?

-- ask Please give measured bioavailability of the following entry: "C[C@@H]1CN(C(=O)[C@H](C)N2CCC(n3c(=O)[nH]c4ccccc43)CC2)C[C@@H](C)N1"
-- reply 21%

---

Molecular target: Cytochrome P450 2C9 (Homo sapiens, UniProt P11712)
Sequence (P11712 whole entry): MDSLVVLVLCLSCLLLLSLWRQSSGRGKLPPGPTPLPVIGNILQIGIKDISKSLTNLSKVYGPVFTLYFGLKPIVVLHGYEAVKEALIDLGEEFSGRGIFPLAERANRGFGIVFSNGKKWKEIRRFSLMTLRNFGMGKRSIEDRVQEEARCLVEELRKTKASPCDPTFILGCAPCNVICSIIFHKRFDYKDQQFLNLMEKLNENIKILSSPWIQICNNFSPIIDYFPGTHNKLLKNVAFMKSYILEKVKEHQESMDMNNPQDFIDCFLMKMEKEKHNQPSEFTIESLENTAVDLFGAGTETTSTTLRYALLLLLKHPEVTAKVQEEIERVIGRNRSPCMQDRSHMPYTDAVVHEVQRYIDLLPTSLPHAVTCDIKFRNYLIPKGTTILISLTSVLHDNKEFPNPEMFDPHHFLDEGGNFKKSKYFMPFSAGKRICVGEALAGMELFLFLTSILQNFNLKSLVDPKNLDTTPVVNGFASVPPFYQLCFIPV
Property Label: IC50

-- ask Given "C[C@@H]1CN(C(=O)[C@H](C)N2CCC(n3c(=O)[nH]c4ccccc43)CC2)C[C@@H](C)N1" , report its IC50 on Cytochrome P450 2C9 (Homo sapiens, UniProt P11712).
-- reply > 10 µM
